FYI, the data here is from patent US20230398130A1.

Test system: ISC-enriched organoids
Assay: Primary screen, 384-well 2.5-D organoid differentiation (ENR+CD, 6 days, Target Selective Inhibitor Library, vs whole-plate median): ATP (CellTiter-Glo 3D, CTG)
Details: Dose 10.00 uM; primary screen, vs plate median
Param threshold (-0.8) applies to Dose.FC.CTG (log 2 fold change); output y when value >= threshold, n when value < threshold.

# count of solved cases: 9
{"columns": ["molecule", "class-label"],
 "data": [
  ["O=[N+]([O-])c1ccc2c(c1)S(=O)(=O)C=C2", "y"],
  ["Oc1ccc(Nc2nc(-c3ccc(Cl)cc3)cs2)cc1", "y"],
  ["C[S+]([O-])c1ccc(-c2nc(-c3ccc(F)cc3)c(-c3ccncc3)[nH]2)cc1 (stereo not shown)", "y"],
  ["COc1cc(OC)c(/C=C/S(=O)(=O)Cc2ccc(OC)c(NCC(=O)O)c2)c(OC)c1", "n"],
  ["O=C(Nc1ccccc1-c1cn2c(CN3CCNCC3)csc2n1)c1cnc2ccccc2n1", "n"],
  ["CNC(=O)c1ccccc1Nc1nc(Nc2ccc(N3CCOCC3)cc2OC)ncc1Cl", "n"],
  ["Cc1cn([C@H]2C=C[C@@H](CO)O2)c(=O)[nH]c1=O", "y"],
  ["COc1cc2c(N3CCN(C(=O)Nc4ccc(OC(C)C)cc4)CC3)ncnc2cc1OCCCN1CCCCC1", "y"],
  ["COc1c(C)c(C(=O)c2ccc(N)c(C(=O)[O-])c2)n2ccccc12.[Na+] [SSR128129E]", "y"]
]}

Tell me whether Dose.FC.CTG (log 2 fold change) is at least -0.8 here: "O=C(Nc1ccncc1)c1cc([N+](=O)[O-])ccc1Cl" y
